Target desc: rabbit muscle glycogen phosphorylase b (RMGPb) (Oryctolagus cuniculus)
Sequence (P00489 1-843): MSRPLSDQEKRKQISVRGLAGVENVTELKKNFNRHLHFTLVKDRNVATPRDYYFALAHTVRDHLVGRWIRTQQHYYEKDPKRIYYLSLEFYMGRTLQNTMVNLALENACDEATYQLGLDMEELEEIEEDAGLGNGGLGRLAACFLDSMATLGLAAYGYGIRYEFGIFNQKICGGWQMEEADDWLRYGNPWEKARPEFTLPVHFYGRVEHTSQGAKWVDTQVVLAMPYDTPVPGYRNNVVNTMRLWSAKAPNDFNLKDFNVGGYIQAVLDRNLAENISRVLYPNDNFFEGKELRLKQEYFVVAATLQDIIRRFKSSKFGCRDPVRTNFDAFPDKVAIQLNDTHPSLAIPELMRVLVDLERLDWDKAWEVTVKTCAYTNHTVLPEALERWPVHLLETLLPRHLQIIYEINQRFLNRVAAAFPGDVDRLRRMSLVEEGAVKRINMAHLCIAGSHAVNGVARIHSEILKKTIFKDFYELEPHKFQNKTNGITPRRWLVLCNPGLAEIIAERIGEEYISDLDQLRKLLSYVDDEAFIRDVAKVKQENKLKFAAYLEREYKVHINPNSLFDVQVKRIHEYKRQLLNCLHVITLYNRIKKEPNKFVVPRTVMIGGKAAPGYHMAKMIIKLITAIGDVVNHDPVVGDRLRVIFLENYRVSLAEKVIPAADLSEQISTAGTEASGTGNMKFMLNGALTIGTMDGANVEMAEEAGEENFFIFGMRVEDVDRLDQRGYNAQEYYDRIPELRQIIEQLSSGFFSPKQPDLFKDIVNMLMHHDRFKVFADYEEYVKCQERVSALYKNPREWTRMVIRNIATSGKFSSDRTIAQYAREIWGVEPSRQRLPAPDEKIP
Measured metric: pIC50
Conceptually, pIC50 converts a concentration in mol/L into minus its log10.

(Q) For the compound OC[C@H]1O[C@@H](n2nnc(-c3ccccc3)n2)[C@H](O)[C@@H](O)[C@@H]1O [18a] , give its reported pIC50.
(A) 3.22

* * *

Target desc: rabbit muscle glycogen phosphorylase b (RMGPb) (Oryctolagus cuniculus, UniProt P00489)
Assay: Inhibition of rabbit muscle glycogen phosphorylase b (enzyme kinetic assay)
Format: biochemical
Conditions used: RMGPb; calculated from IC50 by the Cheng-Prusoff equation; read-out: calculated Ki
Measured metric: pKi
Scale: pKi equals -log10([C]), with [C] in mol/L.

(Q) Given OC[C@H]1O[C@@H](n2nnc(-c3ccccc3)n2)[C@H](O)[C@@H](O)[C@@H]1O [18a] , respond with its pKi.
(A) 3.49

* * *

Target desc: UniProt:P00489
Assay: Inhibition of rabbit muscle glycogen phosphorylase b (enzyme kinetic assay)
Type: biochemical
Set-up: key: N.I.: no inhibition at 625 μM concentration
Conditions used: RMGPb; N.I. = no inhibition at 625 μM concentration
Measured metric: Inhibition

Cn1nnc([C@@H]2O[C@H](CO)[C@@H](O)[C@H](O)[C@H]2O)n1 [13e] ... N.I.
OC[C@H]1O[C@@H](c2cn(-c3cccc4ccccc34)nn2)[C@H](O)[C@@H](O)[C@@H]1O [5c] ... N.I.
OC[C@H]1O[C@@H](n2nnnc2-c2ccccc2)[C@H](O)[C@@H](O)[C@@H]1O [19a] ... N.I.
OC[C@H]1O[C@@H](n2cnc(-c3ccccc3)c2)[C@H](O)[C@@H](O)[C@@H]1O [compound 8] ... N.I.

(Q) Give reported Inhibition value for Cc1nnn([C@@H]2O[C@H](CO)[C@@H](O)[C@H](O)[C@H]2O)n1 [18e]
(A) N.I.

(Q) Give Inhibition for OC[C@H]1O[C@@H](c2cn(-c3ccc4ccccc4c3)nn2)[C@H](O)[C@@H](O)[C@@H]1O [5b]
(A) N.I.

(Q) For Cn1nnnc1[C@@H]1O[C@H](CO)[C@@H](O)[C@H](O)[C@H]1O [14e] , write its Inhibition.
(A) N.I.

(Q) Return value of Inhibition for input OC[C@H]1O[C@@H](c2cn(-c3ccccc3)nn2)[C@H](O)[C@@H](O)[C@@H]1O [5a] , no commentary.
(A) N.I.

(Q) Assign Inhibition to the following record: OC[C@H]1O[C@@H](c2nnn(-c3ccccc3)n2)[C@H](O)[C@@H](O)[C@@H]1O [13a]
(A) N.I.

* * *

Target desc: rabbit muscle glycogen phosphorylase b (RMGPb) (Oryctolagus cuniculus, UniProt P00489)
Sequence (P00489 1-843): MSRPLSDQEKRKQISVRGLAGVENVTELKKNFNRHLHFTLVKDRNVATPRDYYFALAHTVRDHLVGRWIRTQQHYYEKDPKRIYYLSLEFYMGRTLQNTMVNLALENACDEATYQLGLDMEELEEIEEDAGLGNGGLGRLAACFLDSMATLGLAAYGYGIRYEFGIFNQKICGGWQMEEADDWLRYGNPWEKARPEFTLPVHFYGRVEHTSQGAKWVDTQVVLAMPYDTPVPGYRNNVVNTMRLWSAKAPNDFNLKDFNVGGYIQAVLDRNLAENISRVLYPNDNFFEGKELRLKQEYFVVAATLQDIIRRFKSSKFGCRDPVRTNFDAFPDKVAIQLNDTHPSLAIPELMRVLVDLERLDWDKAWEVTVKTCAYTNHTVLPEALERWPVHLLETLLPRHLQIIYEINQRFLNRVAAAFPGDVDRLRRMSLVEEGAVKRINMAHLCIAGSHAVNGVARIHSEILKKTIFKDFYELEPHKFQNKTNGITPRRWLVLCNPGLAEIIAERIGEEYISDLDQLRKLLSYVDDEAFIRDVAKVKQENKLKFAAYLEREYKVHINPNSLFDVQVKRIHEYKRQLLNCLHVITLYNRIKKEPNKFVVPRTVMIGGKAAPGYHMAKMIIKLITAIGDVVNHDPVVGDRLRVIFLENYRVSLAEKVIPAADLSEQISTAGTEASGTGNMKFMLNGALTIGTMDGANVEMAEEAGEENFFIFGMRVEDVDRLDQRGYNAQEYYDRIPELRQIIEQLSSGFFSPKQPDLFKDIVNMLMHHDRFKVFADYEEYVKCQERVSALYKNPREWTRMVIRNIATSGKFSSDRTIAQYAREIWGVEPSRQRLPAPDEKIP
Assay: Inhibition of rabbit muscle glycogen phosphorylase b (enzyme kinetic assay)
Type: biochemical
Conditions used: RMGPb; inhibition constants of IIb multiplied by the average factor ~53; read-out: predicted inhibition constant
Measured metric: Ki

(Q) State its Ki for this compound: "OC[C@H]1O[C@@H](c2cn(-c3ccccc3)nn2)[C@H](O)[C@@H](O)[C@@H]1O"
(A) 7.9 to 8.5 mM
